These entries and their values trace back to ChEMBL document CHEMBL5214898.

assay: Clearance in Beagle dog plasma 1 mg/kg, iv measured for 2 to 1440 mins by LC-MS/MS analysis; type: ADME, organism-based, Canis lupus familiaris; details: time 2-1440 min
MEASURED_QUANTITY: clearance (mL/min/kg)

What does the record list as clearance for CCC(=O)CCCCC[C@H](NC(=O)[C@H]1CC12CCN(CC)CC2)c1ncc(-c2cc3ccc(C)nc3cc2OC)[nH]1 ?
24

A. CCC(=O)CCCCC[C@H](NC(=O)[C@H]1CC12CCN(CC)CC2)c1ncc(-c2cc3ccc(C)nc3cc2OC)o1
B. CCC(=O)CCCCC[C@H](NC(=O)[C@H]1CC12CCN(C)CC2)c1ncc(-c2cc3ccc(C)nc3cc2OC)o1
Of A and B , which shows the smaller clearance value? Your answer should be the label of the entry you select.
A
(A: 2.9 mL/min/kg, B: 6 mL/min/kg)

====

assay: Half life in Wistar Han rat plasma 2 mg/kg, iv by LC-MS/MS analysis; assay type: ADME, organism-based
MEASURED_QUANTITY: half-life (min)

Quick check: half-life of CCC(=O)CCCCC[C@H](NC(=O)[C@H]1CC12CCN(CC)CC2)c1ncc(-c2cc3cn(C)nc3cc2OC)o1 ?
306

P. CCC(=O)CCCCC[C@H](NC(=O)[C@H]1CC12CCN(C)CC2)c1ncc(-c2ccc3nc(C)ccc3c2)[nH]1
Q. CCC(=O)CCCCC[C@H](NC(=O)[C@H]1CC12CCN(C)CC2)c1ncc(-c2cc3ccc(C)nc3cc2F)o1
R. CCC(=O)CCCCC[C@H](NC(=O)[C@H]1CC12CCN(C)CC2)c1ncc(-c2cc3ccc(C)nc3cc2OC)o1
Task for the reader: rank each entry by its half-life, from the minimum upward. Would you mind listing the labels in the order asked for?
Q, P, R
(Q: 114 min, P: 174 min, R: 288 min)

====

test: AUC in Wistar Han rat plasma 10 mg/kg, po measured for 15 to 1440 mins by LC-MS/MS analysis; type: ADME, organism-based
MEASURED_QUANTITY: AUC (µM·h)

Example cases with answers are listed next.
# lookup: AUC of CCC(=O)CCCCC[C@H](NC(=O)[C@H]1CC12CCN(CC)CC2)c1ncc(-c2cc3ccc(C)nc3cc2OC)[nH]1
0.47

Moving on to CCC(=O)CCCCC[C@H](NC(=O)[C@H]1CC12CCN(C)CC2)c1ncc(-c2ccc3nc(C)ccc3c2)[nH]1
0.01

CCC(=O)CCCCC[C@H](NC(=O)[C@H]1CC12CCN(CC)CC2)c1ncc(-c2cc3ccn(CC)c(=O)c3cc2OC)o1 ?
0.6

Try this compound next: CCC(=O)CCCCC[C@H](NC(=O)[C@H]1CC12CCN(CC)CC2)c1ncc(-c2cc3ccc(C)nc3cc2OC)o1
1.1

Can you check CCC(=O)CCCCC[C@H](NC(=O)[C@H]1CC12CCN(C(C)C)CC2)c1ncc(-c2cc3ccc(C)nc3cc2OC)[nH]1 next?
0.02

CCC(=O)CCCCC[C@H](NC(=O)[C@H]1CC12CCN(C)CC2)c1ncc(-c2cc3ccc(C)nc3cc2F)o1 ?
0.3

a. CCC(=O)CCCCC[C@H](NC(=O)[C@H]1CC12CCN(C)CC2)c1ncc(-c2cc3cccnc3cc2OC)[nH]1
b. CCC(=O)CCCCC[C@H](NC(=O)[C@H]1CC12CCN(C)CC2)c1ncc(-c2cc3ccc(C)nc3cc2OC)o1
For the pair a and b , which entry has the numerically smaller recorded AUC? Answer with the label corresponding to your selection.
a
(a: 0.06 µM·h, b: 10 µM·h)
